Test system hCA IX (Homo sapiens, UniProt Q16790), pIC50 listed for each of the compounds.
One number for each entry, as −log10 of the molar value.

Give me pIC50 for each of these compounds, listed below.
1. NS(=O)(=O)c1nnc(NC(=O)c2ccc(NC(=O)CCC(=O)N[C@@H]3O[C@H](CO)[C@@H](O)[C@H](O)[C@H]3O)c(Cl)c2)s1 [Compound 14l]
2. NS(=O)(=O)c1nnc(NC(=O)c2ccc(NC(=O)CCC(=O)NC3OC(CO)C(O)C(O)C3O)cc2)s1 (stereo not drawn) [Compound 14i]
3. Nc1ccc(C(=O)Nc2nnc(S(N)(=O)=O)s2)cc1Cl [Compound 12d]
4. NS(=O)(=O)c1nnc(NC(=O)c2ccc(NC(=O)CCCC(=O)N[C@@H]3O[C@H](CO)[C@@H](O)[C@H](O)[C@H]3O)c(Cl)c2)s1 [Compound 14d]
5. Nc1ccc(C(=O)Nc2nnc(S(N)(=O)=O)s2)cc1 [Compound 12a]
6. Cc1cc(C(=O)Nc2nnc(S(N)(=O)=O)s2)ccc1N [Compound 12g]

Solution:
6.59
7.26
7.44
6.55
7.35
7.36

Give me pIC50 for each of these compounds, listed below.
1. Nc1cccc(C(=O)Nc2nnc(S(N)(=O)=O)s2)c1 [Compound 12b]
2. NS(=O)(=O)c1nnc(NC(=O)c2ccc(NC(=O)CCC(=O)N[C@@H]3O[C@H](CO)[C@@H](O)[C@H](O)[C@H]3O)c(Br)c2)s1 [Compound 14m]
3. NS(=O)(=O)c1nnc(NC(=O)c2ccc(NC(=O)CCC(=O)N[C@@H]3O[C@H](CO)[C@@H](O)[C@H](O)[C@H]3O)c(F)c2)s1 [Compound 14k]
4. Nc1ccc(C(=O)Nc2nnc(S(N)(=O)=O)s2)cc1Br [Compound 12e]
5. COc1cc(C(=O)Nc2nnc(S(N)(=O)=O)s2)ccc1NC(=O)CCC(=O)N[C@@H]1O[C@H](CO)[C@@H](O)[C@H](O)[C@H]1O [Compound 14p]

Solution:
[7.20, 6.06, 6.85, 7.18, 7.32]

Problem: Let me know recorded pIC50 for Nc1ccc(C(=O)Nc2nnc(S(N)(=O)=O)s2)cc1[N+](=O)[O-] [Compound 12f] , thanks.
Solution: 7.26

* * *

- system.name: hCA XII (Homo sapiens)
- Sequence (O43570 25-354): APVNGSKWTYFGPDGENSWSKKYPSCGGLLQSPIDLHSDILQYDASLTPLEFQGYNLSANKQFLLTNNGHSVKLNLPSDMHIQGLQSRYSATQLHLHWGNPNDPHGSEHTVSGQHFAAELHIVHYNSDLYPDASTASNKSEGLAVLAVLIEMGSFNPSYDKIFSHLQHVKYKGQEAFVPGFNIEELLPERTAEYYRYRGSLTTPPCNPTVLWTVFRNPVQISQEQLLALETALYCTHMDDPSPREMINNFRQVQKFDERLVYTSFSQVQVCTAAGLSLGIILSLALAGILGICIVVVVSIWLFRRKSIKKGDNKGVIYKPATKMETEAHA
Exercise: for every item that follows, state its recorded IC50.
Numbers only, in nM.

compound="NS(=O)(=O)c1nnc(NC(=O)c2cccc(NC(=O)CCC(=O)N[C@@H]3O[C@H](CO)[C@@H](O)[C@H](O)[C@H]3O)c2)s1 [Compound 14j]" observation_type=IC50 unit_spec=nM measured=40.6

Give me IC50 for each of these compounds, listed below.
1. COc1cc(C(=O)Nc2nnc(S(N)(=O)=O)s2)ccc1NC(=O)CCCC(=O)N[C@@H]1O[C@H](CO)[C@@H](O)[C@H](O)[C@H]1O [Compound 14h]
2. NS(=O)(=O)c1nnc(NC(=O)c2ccc(NC(=O)CCCC(=O)N[C@@H]3O[C@H](CO)[C@@H](O)[C@H](O)[C@H]3O)cc2)s1 [Compound 14a]
3. NS(=O)(=O)c1nnc(NC(=O)c2ccc(NC(=O)CCCC(=O)N[C@@H]3O[C@H](CO)[C@@H](O)[C@H](O)[C@H]3O)c(F)c2)s1 [Compound 14c]
4. COc1cc(C(=O)Nc2nnc(S(N)(=O)=O)s2)ccc1NC(=O)CCC(=O)N[C@@H]1O[C@H](CO)[C@@H](O)[C@H](O)[C@H]1O [Compound 14p]

Solution:
[84.9, 141, 81.8, 42.3]

Give me IC50 for each of these compounds, listed below.
1. NS(=O)(=O)c1nnc(NC(=O)c2cccc(NC(=O)CCCC(=O)N[C@@H]3O[C@H](CO)[C@@H](O)[C@H](O)[C@H]3O)c2)s1 [Compound 14b]
2. NS(=O)(=O)c1nnc(NC(=O)c2ccc(NC(=O)CCC(=O)NC3OC(CO)C(O)C(O)C3O)cc2)s1 (centres unmarked) [Compound 14i]
3. Cc1cc(C(=O)Nc2nnc(S(N)(=O)=O)s2)ccc1NC(=O)CCCC(=O)N[C@@H]1O[C@H](CO)[C@@H](O)[C@H](O)[C@H]1O [Compound 14g]

Solution:
[56, 52.8, 70.5]

* * *

- system.name: UniProtKB P00918
observation.type: IC50 (nM)
One number for each entry, in nM.

molecule="NS(=O)(=O)c1nnc(NC(=O)c2cccc(NC(=O)CCCC(=O)N[C@@H]3O[C@H](CO)[C@@H](O)[C@H](O)[C@H]3O)c2)s1 [Compound 14b]" measured=80.3
molecule="Nc1ccc(C(=O)Nc2nnc(S(N)(=O)=O)s2)cc1[N+](=O)[O-] [Compound 12f]" measured=701
molecule="COc1cc(C(=O)Nc2nnc(S(N)(=O)=O)s2)ccc1NC(=O)CCCC(=O)N[C@@H]1O[C@H](CO)[C@@H](O)[C@H](O)[C@H]1O [Compound 14h]" measured=272
molecule="NS(=O)(=O)c1nnc(NC(=O)c2ccc(NC(=O)CCCC(=O)N[C@@H]3O[C@H](CO)[C@@H](O)[C@H](O)[C@H]3O)c(F)c2)s1 [Compound 14c]" measured=215
molecule="NS(=O)(=O)c1nnc(NC(=O)c2ccc(NC(=O)CCC(=O)N[C@@H]3O[C@H](CO)[C@@H](O)[C@H](O)[C@H]3O)c(Br)c2)s1 [Compound 14m]" measured=824

Now consider the entry below.
Problem: Let me know recorded IC50 for NS(=O)(=O)c1nnc(NC(=O)c2ccc(NC(=O)CCC(=O)NC3OC(CO)C(O)C(O)C3O)cc2)s1 (stereo not drawn) [Compound 14i] , thanks.
Solution: 197

* * *

Test system UniProt Q16790, IC50 listed for each of the compounds.
Returns: string containing the number followed by the unit.

Before answering, review these 8 worked examples.
compound="COc1cc(C(=O)Nc2nnc(S(N)(=O)=O)s2)ccc1N [Compound 12h]" measured="36.4 nM"
compound="NS(=O)(=O)c1nnc(NC(=O)c2ccc(NC(=O)CCCC(=O)N[C@@H]3O[C@H](CO)[C@@H](O)[C@H](O)[C@H]3O)cc2)s1 [Compound 14a]" measured="29 nM"
compound="Cc1cc(C(=O)Nc2nnc(S(N)(=O)=O)s2)ccc1NC(=O)CCCC(=O)N[C@@H]1O[C@H](CO)[C@@H](O)[C@H](O)[C@H]1O [Compound 14g]" measured="53.4 nM"
compound="NS(=O)(=O)c1nnc(NC(=O)c2ccc(NC(=O)CCC(=O)N[C@@H]3O[C@H](CO)[C@@H](O)[C@H](O)[C@H]3O)c([N+](=O)[O-])c2)s1 [Compound 14n]" measured="291 nM"
compound="NS(=O)(=O)c1nnc(NC(=O)c2ccc(NC(=O)CCCC(=O)N[C@@H]3O[C@H](CO)[C@@H](O)[C@H](O)[C@H]3O)c([N+](=O)[O-])c2)s1 [Compound 14f]" measured="117 nM"
compound="Cc1cc(C(=O)Nc2nnc(S(N)(=O)=O)s2)ccc1NC(=O)CCC(=O)N[C@@H]1O[C@H](CO)[C@@H](O)[C@H](O)[C@H]1O [Compound 14o]" measured="135 nM"
compound="NS(=O)(=O)c1nnc(NC(=O)c2ccc(NC(=O)CCCC(=O)N[C@@H]3O[C@H](CO)[C@@H](O)[C@H](O)[C@H]3O)c(Br)c2)s1 [Compound 14e]" measured="1080 nM"
compound="COc1cc(C(=O)Nc2nnc(S(N)(=O)=O)s2)ccc1NC(=O)CCCC(=O)N[C@@H]1O[C@H](CO)[C@@H](O)[C@H](O)[C@H]1O [Compound 14h]" measured="68.8 nM"

Give me IC50 for each of these compounds, listed below.
1. NS(=O)(=O)c1nnc(NC(=O)c2ccc(NC(=O)CCCC(=O)N[C@@H]3O[C@H](CO)[C@@H](O)[C@H](O)[C@H]3O)c(F)c2)s1 [Compound 14c]
2. NS(=O)(=O)c1nnc(NC(=O)c2cccc(NC(=O)CCCC(=O)N[C@@H]3O[C@H](CO)[C@@H](O)[C@H](O)[C@H]3O)c2)s1 [Compound 14b]

Solution:
1: 76.6 nM; 2: 29 nM

Give me IC50 for each of these compounds, listed below.
1. NS(=O)(=O)c1nnc(NC(=O)c2cccc(NC(=O)CCC(=O)N[C@@H]3O[C@H](CO)[C@@H](O)[C@H](O)[C@H]3O)c2)s1 [Compound 14j]
2. Nc1ccc(C(=O)Nc2nnc(S(N)(=O)=O)s2)cc1F [Compound 12c]

Solution:
1: 69.4 nM; 2: 41.3 nM

* * *

Test system hCA II (Homo sapiens), pIC50 listed for each of the molecules.
One number for each entry, as −log10 of the molar value.

Before answering, review these 4 worked examples.
molecule="Nc1ccc(C(=O)Nc2nnc(S(N)(=O)=O)s2)cc1Br [Compound 12e]" measured=6.27
molecule="NS(=O)(=O)c1nnc(NC(=O)c2ccc(NC(=O)CCCC(=O)N[C@@H]3O[C@H](CO)[C@@H](O)[C@H](O)[C@H]3O)c(Cl)c2)s1 [Compound 14d]" measured=6.12
molecule="Nc1ccc(C(=O)Nc2nnc(S(N)(=O)=O)s2)cc1Cl [Compound 12d]" measured=6.40
molecule="Nc1ccc(C(=O)Nc2nnc(S(N)(=O)=O)s2)cc1F [Compound 12c]" measured=6.62

Give me pIC50 for each of these molecules, listed below.
1. NS(=O)(=O)c1nnc(NC(=O)c2ccc(NC(=O)CCC(=O)N[C@@H]3O[C@H](CO)[C@@H](O)[C@H](O)[C@H]3O)c(F)c2)s1 [Compound 14k]
2. COc1cc(C(=O)Nc2nnc(S(N)(=O)=O)s2)ccc1NC(=O)CCC(=O)N[C@@H]1O[C@H](CO)[C@@H](O)[C@H](O)[C@H]1O [Compound 14p]
3. COc1cc(C(=O)Nc2nnc(S(N)(=O)=O)s2)ccc1N [Compound 12h]
4. NS(=O)(=O)c1nnc(NC(=O)c2ccc(NC(=O)CCC(=O)N[C@@H]3O[C@H](CO)[C@@H](O)[C@H](O)[C@H]3O)c(Cl)c2)s1 [Compound 14l]
5. NS(=O)(=O)c1nnc(NC(=O)c2ccc(NC(=O)CCCC(=O)N[C@@H]3O[C@H](CO)[C@@H](O)[C@H](O)[C@H]3O)cc2)s1 [Compound 14a]
6. NS(=O)(=O)c1nnc(NC(=O)c2ccc(NC(=O)CCCC(=O)N[C@@H]3O[C@H](CO)[C@@H](O)[C@H](O)[C@H]3O)c([N+](=O)[O-])c2)s1 [Compound 14f]

Solution:
1: 6.32; 2: 6.48; 3: 6.83; 4: 6.21; 5: 6.85; 6: 6.00
